Where a name gives a salt, the structure may show the parent alone.
For each of the compounds below, state its melting point.

Example compounds with recorded melting point:
Return reported melting point; argument: COc1ccccc1-c1cc(C(F)(F)F)nn1-c1ccc(S(N)(=O)=O)c(F)c1 (as salt: trifluoroacetate)
159 to 160 °C

Return reported melting point; argument: `CS(=O)(=O)c1ccc(-c2cscc2-c2ccccc2)cc1F`
140 to 141 °C

Return reported melting point; argument: CS(=O)(=O)c1ccc(-c2cc(C(F)F)nn2C2CCCCC2)cc1F (as salt: trifluoroacetate)
138 to 139 °C

Provide the reported melting point of each entry below, same order.
1. Cc1ccc(-n2nc(C(F)(F)F)cc2-c2ccc(S(C)(=O)=O)c(F)c2)cc1Cl
2. CS(=O)(=O)c1ccc(-c2cc(C(F)(F)F)nn2-c2ccc(F)cc2)cc1F
3. Cc1cccc(-n2nc(C(F)(F)F)cc2-c2ccc(S(C)(=O)=O)c(F)c2)c1
4. Cc1ccc(-c2cc(C(F)F)nn2-c2ccc(S(N)(=O)=O)c(F)c2)cc1Cl
5. CS(=O)(=O)c1ccc(C2=C(c3ccccc3)C(=O)OC2)cc1F
6. NS(=O)(=O)c1ccc(-c2cscc2-c2ccccc2)cc1F
7. CS(=O)(=O)c1ccc(-c2cc(C(F)F)nn2-c2cccc(C(F)(F)F)c2)cc1F (as salt: trifluoroacetate)

144 to 145 °C
228 to 229 °C
129 to 130 °C
160 to 161 °C
161 to 162 °C
170.9 to 171 °C
110 to 111 °C

Provide the reported melting point of each entry below, same order.
1. Cc1ccc(-n2nc(C(F)F)cc2-c2ccc(S(C)(=O)=O)c(F)c2)cc1Cl (as salt: trifluoroacetate)
2. CS(=O)(=O)c1ccc(-c2cc(C(F)(F)F)nn2-c2ccc(C#N)cc2)cc1F
3. NS(=O)(=O)c1ccc(-n2nc(C(F)(F)F)cc2-c2ccc(F)cc2)cc1F (as salt: trifluoroacetate)
4. CS(=O)(=O)c1ccc(-c2cc(C(F)(F)F)nn2C2CCCCC2)cc1F
5. Cc1ccc(-c2cc(C(F)(F)F)nn2-c2ccc(S(N)(=O)=O)c(F)c2)cc1 (as salt: trifluoroacetate)
6. CS(=O)(=O)c1ccc(-c2cc(C(F)(F)F)nn2-c2ccc(OC(F)(F)F)cc2)cc1F
7. Cc1onc(-c2ccc(F)cc2)c1-c1ccc(S(N)(=O)=O)c(F)c1

1: 146 to 147 °C; 2: 152 to 153 °C; 3: 127 to 130 °C; 4: 228 to 229 °C; 5: 126 to 128 °C; 6: 110 to 112 °C; 7: 176 to 177 °C

Provide the reported melting point of each entry below, same order.
1. NS(=O)(=O)c1ccc(-n2nc(C(F)(F)F)cc2-c2ccc(Cl)cc2)cc1F (as salt: trifluoroacetate)
2. COc1ccc(-c2cc(C(F)F)nn2-c2ccc(S(N)(=O)=O)c(F)c2)cc1F
3. COc1ccc(-c2cc(C(F)(F)F)nn2-c2ccc(S(N)(=O)=O)c(F)c2)cc1F (as salt: trifluoroacetate)

140 to 141 °C
167 to 169 °C
124 to 126 °C

Return reported melting point; argument: CS(=O)(=O)c1ccc(-c2cc(C(F)F)nn2-c2ccc(F)cc2)cc1F (as salt: trifluoroacetate)
201 to 202 °C
